tested on: Candida albicans; experiment: MIC (Minimum Inhibitory Concentration); format: cell-based; conditions: read-out: MIC values, Candida albicans A 3169

molecule: [C-]#[N+]C(=C1CCOCC1)S(=O)(=O)c1ccc(C)cc1 [Example 14a]
tested_system: Candida albicans
MIC / µg/mL: 6
--
molecule: [C-]#[N+]C(C1=CCCCCCC1)S(=O)(=O)c1ccc(C)cc1 (stereo not shown)
tested_system: Candida albicans
MIC / µg/mL: 6
--
molecule: [C-]#[N+]C(=C1CCCCCC1)S(=O)(=O)c1ccc(C)cc1 [Example 18a]
tested_system: Candida albicans
MIC / µg/mL: 3
--
molecule: [C-]#[N+]C(C1=CCCCCC1)S(=O)(=O)c1ccc(C)cc1 (stereo not shown) [Example 18b]
tested_system: Candida albicans
MIC / µg/mL: 12.5
--
molecule: [C-]#[N+]C(=C1CCCCC1)S(=O)(=O)c1ccc(C)cc1
tested_system: Candida albicans
MIC / µg/mL: 6
--
molecule: [C-]#[N+]C(=C1CCCCC1)S(=O)(=O)c1ccccc1
tested_system: Candida albicans
MIC / µg/mL: 1.5
--
molecule: [C-]#[N+]C(=C1CCCC1)S(=O)(=O)c1ccc(C)cc1
tested_system: Candida albicans
MIC / µg/mL: 3
--
molecule: [C-]#[N+]C(=C1C2CC3CC(C2)CC1C3)S(=O)(=O)c1ccc(C)cc1
tested_system: Candida albicans
MIC / µg/mL: 1.5
--
molecule: Clc1ccc(COC(Cn2ccnc2)c2ccc(Cl)cc2Cl)c(Cl)c1 (stereo not shown) [miconazole, reference compound]
tested_system: Candida albicans
MIC / µg/mL: 1.5
--
molecule: [C-]#[N+]C(=C1CCSCC1)S(=O)(=O)c1ccc(C)cc1 [Example 16a]
tested_system: Candida albicans
MIC / µg/mL: 12.5

###

system: Trichophyton mentagrophytus; experiment: MIC (Minimum Inhibitory Concentration); type: cell-based; conditions: Trichophyton mentagrophytus 421-67, read-out: MIC values
The entries below come with measured MIC values attached.

molecule: [C-]#[N+]C(=C(C)c1ccccc1)S(=O)(=O)c1ccc(C)cc1 [Example 12]
censoring_operator: =
MIC, µg/mL: 6

molecule: [C-]#[N+]C(=C(C)c1cccs1)S(=O)(=O)c1ccc(C)cc1 [Example 17]
censoring_operator: >
MIC, µg/mL: 100

molecule: [C-]#[N+]C(=CC(C)(C)C)S(=O)(=O)c1ccc(C)cc1 [Example 4]
censoring_operator: =
MIC, µg/mL: 0.8

molecule: [C-]#[N+]C(=C(C)c1ccc([N+](=O)[O-])cc1)S(=O)(=O)c1ccc(C)cc1 [Example 22]
censoring_operator: =
MIC, µg/mL: 12.5

molecule: [C-]#[N+]C(=Cc1ccc(OC)cc1)S(=O)(=O)c1ccc(C)cc1 [Example 23]
censoring_operator: =
MIC, µg/mL: 100

molecule: [C-]#[N+]C(=C(C)CC)S(=O)(=O)c1ccc(C)cc1 [Example 27a]
censoring_operator: =
MIC, µg/mL: 6

molecule: [C-]#[N+]C(=Cc1cccn1C)S(=O)(=O)c1ccc(C)cc1 [Example 30]
censoring_operator: >
MIC, µg/mL: 100

molecule: [C-]#[N+]C(=C(CCCCC)CCCCC)S(=O)(=O)c1ccc(C)cc1 [Example 26]
censoring_operator: =
MIC, µg/mL: 100

molecule: [C-]#[N+]C(=Cc1ccco1)S(=O)(=O)c1ccc(C)cc1 [Example 10]
censoring_operator: =
MIC, µg/mL: 1.5

molecule: C[C@@H]1C/C=C/C=C/C=C/C=C/[C@H](O[C@@H]2O[C@H](C)[C@@H](O)[C@H](N)[C@@H]2O)C[C@@H]2O[C@](O)(C[C@@H](O)C[C@H]3O[C@@H]3/C=C/C(=O)O1)C[C@H](O)[C@H]2C(=O)O [natamycin, reference compound]
censoring_operator: =
MIC, µg/mL: 12.5

molecule: [C-]#[N+]C(=Cc1ccc(Cl)cc1)S(=O)(=O)c1ccc(C)cc1 [Example 11]
censoring_operator: =
MIC, µg/mL: 6
